Numbers sourced from patent US10787443B2.

- Test system: GST-Braf kinase domain and biotinylated E3 substrate adapter (VHL/EloB/EloC complex or CRBN318-425)
- assay-explanation: Dimerization assay (AlphaScreen/AlphaLisa), RAF/E3 dimerization
- Type: binding
- measurement-context: Table 15; relative value; compounds 4 fold serial dilutions from 20 μM

compound	RAF/E3 Dimerization
Cc1ncc(NC(=O)c2cccc(C(F)(F)F)c2)cc1-c1cnc(OCc2cn(CCCCCC(=O)Nc3cccc4c3C(=O)N(C3CCC(=O)NC3=O)C4=O)nn2)c(N2CCOCC2)c1 (centres unmarked)	+ +
Cc1ncc(NC(=O)c2cccc(C(F)(F)F)c2)cc1-c1cnc(OCCCc2cn(CCCCCC(=O)Nc3cccc4c3C(=O)N(C3CCC(=O)NC3=O)C4=O)nn2)c(N2CCOCC2)c1 (centres unmarked)	+ +
Cc1ncc(NC(=O)c2cccc(C(F)(F)F)c2)cc1-c1cnc(OCCOCCOCCOCc2cn(CCCCCC(=O)Nc3cccc4c3C(=O)N(C3CCC(=O)NC3=O)C4=O)nn2)c(N2CCOCC2)c1 (centres unmarked)	+ + +
Cc1ncc(NC(=O)c2cccc(C(F)(F)F)c2)cc1-c1cnc(OCCOCCOCCOCCOCCOCc2cn(CCCCCC(=O)Nc3cccc4c3C(=O)N(C3CCC(=O)NC3=O)C4=O)nn2)c(N2CCOCC2)c1 (centres unmarked)	+ + +
